The values you see were collected from patent EP3494999A1.

molecular target: human serum albumin (Homo sapiens); assay: Literature HSA binding of the reference substances used to calibrate the HSA column; settings: logarithmic K of human serum albumin binding, from the literature HSA%
Sequence (P02768 25-609): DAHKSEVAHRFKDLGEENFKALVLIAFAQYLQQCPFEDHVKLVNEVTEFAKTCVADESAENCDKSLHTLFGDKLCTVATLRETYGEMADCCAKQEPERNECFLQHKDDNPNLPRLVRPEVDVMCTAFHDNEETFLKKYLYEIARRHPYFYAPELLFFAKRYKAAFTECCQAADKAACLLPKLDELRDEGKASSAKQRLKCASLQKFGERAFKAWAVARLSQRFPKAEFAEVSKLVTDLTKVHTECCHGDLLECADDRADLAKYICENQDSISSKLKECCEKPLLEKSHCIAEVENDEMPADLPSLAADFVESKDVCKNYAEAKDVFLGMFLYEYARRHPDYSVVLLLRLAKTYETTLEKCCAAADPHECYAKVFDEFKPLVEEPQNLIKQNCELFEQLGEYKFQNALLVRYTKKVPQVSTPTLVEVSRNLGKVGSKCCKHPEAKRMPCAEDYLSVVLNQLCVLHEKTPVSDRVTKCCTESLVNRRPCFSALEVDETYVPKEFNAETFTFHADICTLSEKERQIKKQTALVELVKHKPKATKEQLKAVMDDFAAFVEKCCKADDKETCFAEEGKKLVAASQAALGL
measured.property: Log K HSA
Enter the number alone.

Observe how each entry below is paired with its result.
{"compound": "O=C(O)c1ccccc1", "Log K HSA": -0.29}
{"compound": "Oc1ccccc1", "Log K HSA": -0.59}
{"compound": "Nc1ccccc1", "Log K HSA": -0.79}

Please give measured Log K HSA of the following entry: COc1ccc(Cl)cc1C(=O)NCCc1ccc(S(=O)(=O)NC(=O)NC2CCCCC2)cc1 [Glibenclamide]
1.69
